We begin with a simple list: items and their reported Kd.
- system.under.test: T1, Human CD24 (human, UniProt P25063 27-59, limits assumed)
- T1 chain (looked up): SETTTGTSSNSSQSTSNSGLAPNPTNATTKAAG
- assay.details: SPR, second 1:1 binding column set
// note: answer is a bare numeric in nM

These recorded examples may help you get a feel for the data.
Antibody No 15 (4451HM15), lead clone of 4451H (HC N35G, T59Y; LC K27A) (antibody, V domains shown) VH: QVQLVQSGAEVKKPGASVKVSCKASGYDFTGYHMGWVRQAPGQGLEWMGEINPITSDKYFNQKFKSRVTMTRDTSISTAYMELSRLRSDDTAVYYCARRDYGTSLDYWGQGTTVTVSS VL: DIQLTQSPSFLSASVGDRVTITCRASASISKYLAWYQQKPGKAPKLLIYAGSTLHSGIPSRFRGSGSGTEFTLTISSLQPEDFATYYCQQHNEYPITFGQGTKLEIK | 3.98
Antibody No 6, lead clone of 4451H (HC N35G; LC L33G) (antibody, V domains shown) VH: QVQLVQSGAEVKKPGASVKVSCKASGYDFTGYHMGWVRQAPGQGLEWMGEINPITSDKTFNQKFKSRVTMTRDTSISTAYMELSRLRSDDTAVYYCARRDYGTSLDYWGQGTTVTVSS VL: DIQLTQSPSFLSASVGDRVTITCRASKSISKYGAWYQQKPGKAPKLLIYAGSTLHSGIPSRFRGSGSGTEFTLTISSLQPEDFATYYCQQHNEYPITFGQGTKLEIK | 3.86
Antibody No 16, lead clone of 4451H (HC N35G, T59Y; LC S30K) (antibody, V domains shown) VH: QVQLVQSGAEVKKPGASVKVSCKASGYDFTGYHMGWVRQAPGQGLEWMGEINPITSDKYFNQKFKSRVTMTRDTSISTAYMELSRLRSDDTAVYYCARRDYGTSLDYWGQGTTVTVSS VL: DIQLTQSPSFLSASVGDRVTITCRASKSIKKYLAWYQQKPGKAPKLLIYAGSTLHSGIPSRFRGSGSGTEFTLTISSLQPEDFATYYCQQHNEYPITFGQGTKLEIK | 6.99

Field: next binder
// query Provide Kd value for the following binder: Antibody No 17, lead clone of 4451H (HC N35G, T59Y; LC L33G) (antibody, V domains shown) VH: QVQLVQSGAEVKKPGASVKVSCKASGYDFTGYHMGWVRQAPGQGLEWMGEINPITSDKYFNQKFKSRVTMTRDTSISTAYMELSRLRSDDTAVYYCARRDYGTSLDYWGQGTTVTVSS VL: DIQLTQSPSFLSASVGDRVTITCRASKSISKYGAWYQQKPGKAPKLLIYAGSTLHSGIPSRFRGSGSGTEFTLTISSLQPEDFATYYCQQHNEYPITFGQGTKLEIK
// result 3.41
